Measured values drawn from patent US10030016B2 for this set.

Test system: phospho-akt (Thr308) in PC-3 cells
Assay comment: Inhibition of phospho-akt (Thr308) in PC-3 cells, MSD phospho-akt 308 ELISA kit
Assay type: cell-based
Experimental parameters: Homo sapiens; inhibition of P308 Akt in PC-3 cells using MSD, 2 hours, no serum; read-out: EC50
pEC50: −log10 of the molar value.
Property label: pEC50

Here is how some compounds turned out for pEC50.
Chemical structure: N#Cc1cnc2c(c1)c(NCc1ccc(F)c(F)c1)nn2Cc1ccc(-c2cnc(N)cn2)cc1
pEC50: < 5.00
--
Chemical structure: C[C@H](NC(=O)c1cc(C#N)cnc1NCc1ccc(-c2cnc(N)c(C(=O)O)n2)cc1)c1ccc(F)cc1
pEC50: < 5.00
--
Chemical structure: C[C@H](NC(=O)c1nc(C#N)cnc1NCc1ccc(-c2cnc(N)c(O[C@@H]3CCC[C@H]3N)n2)cc1)c1ccc(F)c(F)c1
pEC50: 5.00 to 6.00
--
Chemical structure: C[C@H](NC(=O)c1nc(C#N)cnc1NCc1ccc(-c2cnc3[nH]nc(N(C)C)c3c2)cc1)c1ccc(F)c(F)c1
pEC50: > 6.00
--
Chemical structure: C[C@H](NC(=O)c1nc(C#N)cnc1NCc1ccc(-c2cnc(N)c(CCCN)n2)cc1)c1ccc(F)c(F)c1
pEC50: > 6.00

Given the entry `COCCCc1nc(-c2ccc(CNc3ncc(C#N)cc3C(=O)N[C@@H](C)c3ccc(F)cc3)cc2)cnc1N` , report its measured pEC50.
5.00 to 6.00

Given the entry `C[C@H](NC(=O)c1cc(C#N)cnc1NCc1ccc(-c2cnc(N)cn2)cc1F)c1ccc(F)cc1` , report its measured pEC50.
5.00 to 6.00

Given the entry `C[C@H](NC(=O)c1cc(C#N)cnc1NCc1ccc(-c2cnc(N)c(CCCN)n2)cc1)c1ccc(F)cc1` , report its measured pEC50.
> 6.00

Given the entry `C[C@H](NC(=O)c1nc(C#N)cnc1NCc1ccc(-c2cnc(N)c(N3CCC[C@H](N)C3)n2)cc1)c1ccc(F)c(F)c1` , report its measured pEC50.
> 6.00

Given the entry `CN(C(=O)c1cc(C(F)(F)F)cnc1NCc1ccc(-c2cnc3[nH]nc(N)c3c2)cc1)c1ccc(F)cc1` , report its measured pEC50.
5.00 to 6.00

Given the entry `C[C@H](NC(=O)c1cc(C#N)cnc1NCC#Cc1cnc2[nH]ncc2c1)c1ccc(F)cc1` , report its measured pEC50.
< 5.00

Given the entry `O=C(NCc1ccc(F)cc1)c1cccnc1NCc1ccc(-c2cnc3[nH]ncc3c2)cc1` , report its measured pEC50.
5.00 to 6.00

Given the entry `Nc1n[nH]c2ncc(-c3ccc(CNc4ncc(C(F)(F)F)cc4C(=O)N[C@H](CO)c4ccc(Br)cc4)cc3)cc12` , report its measured pEC50.
< 5.00

Given the entry `Nc1cnc(-c2ccc(CNc3ncc(C(F)(F)F)cc3C(=O)NCc3ccc(F)c(F)c3)cc2)cn1` , report its measured pEC50.
> 6.00

====

Study target: PDK1 (Homo sapiens (Human), UniProt O15530)
Sequence (O15530 51-359): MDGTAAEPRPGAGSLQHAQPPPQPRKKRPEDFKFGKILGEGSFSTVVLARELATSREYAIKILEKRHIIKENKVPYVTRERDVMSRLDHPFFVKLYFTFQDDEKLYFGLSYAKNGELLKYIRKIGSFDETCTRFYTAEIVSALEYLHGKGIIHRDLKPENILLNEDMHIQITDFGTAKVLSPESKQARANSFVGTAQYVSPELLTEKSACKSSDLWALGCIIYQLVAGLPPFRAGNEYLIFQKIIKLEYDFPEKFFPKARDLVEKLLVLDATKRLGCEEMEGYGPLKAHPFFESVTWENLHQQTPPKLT
Assay comment: PDK1 kinase assay (coupled PDK1/AKT/FAM-crosstide assay, IMAP fluorescence polarization)
Assay type: biochemical
Experimental parameters: inhibition of PDK1 in vitro
Property label: IC50

Here is how some compounds turned out for IC50.
Compound: C[C@H](NC(=O)c1cc(C#N)cnc1NCc1cnc(-c2cnc3[nH]ncc3c2)nc1)c1ccc(F)cc1 [Example 69]
IC50: 100 to 1000 nM
//
Compound: C[C@H](NC(=O)c1cc(C#N)cnc1NCc1ccc(-c2cnc(N)c(CCCN3CCOCC3)n2)cc1)c1ccc(F)cc1 [Example 88]
IC50: < 100 nM
//
Compound: CC(C)(N)COc1nc(-c2ccc(CNc3ncc(C(F)(F)F)cc3C(=O)Nc3ccc(F)cc3)cc2)cnc1N [Example 200]
IC50: < 100 nM

Please find the next compound below.
Given the entry C[C@H](NC(=O)c1cc(C#N)cnc1NCc1ccc(-c2cnc(N)c(-c3cccc(N)c3)n2)cc1)c1ccc(F)cc1 [Example 237] , report its measured IC50.
< 100 nM
